Value source: patent US20230059087A1

Each item that follows carries a reported Tmax.
# test-method-notes: Pharmacokinetics in rats after intragastric administration
# condition-description: SD, rat, plasma, po, 50 mg/kg

[
  {
    "smiles-input": "[2H]C([2H])=C([C@@H]1CCC(C([2H])([2H])[2H])=C[C@H]1c1c(O)cc(CCCCC)cc1O)C([2H])([2H])[2H]",
    "Tmax [h]": 2.2
  },
  {
    "smiles-input": "[2H]C([2H])([2H])C1=C[C@@H](c2c(O)cc(CCCCC)cc2O)[C@H](C(=C)C)CC1([2H])[2H]",
    "Tmax [h]": 2
  },
  {
    "smiles-input": "[2H]C([2H])([2H])C1=C[C@H](c2c(O)cc(CCCCC)c(C(=O)O)c2O)[C@@H](C(=C)C)CC1",
    "Tmax [h]": 1.75
  },
  {
    "smiles-input": "[2H]C([2H])(O)C1=C[C@@H](c2c(O)cc(CCCCC)cc2O)[C@H](C(=C)C)CC1([2H])[2H]",
    "Tmax [h]": 1.5
  },
  {
    "smiles-input": "[2H]C([2H])([2H])C1=C[C@@H](c2c(O)cc(CCCCCCC)cc2O)[C@H](C(=C)C)CC1",
    "Tmax [h]": 2
  },
  {
    "smiles-input": "C=C(C)[C@@H]1CCC(C)=C[C@H]1c1c(O)cc(CCCCC)cc1O",
    "Tmax [h]": 2
  }
]

* * *

# test-method-notes: in vivo
# condition-description: SD, rat, po, 50 mg/kg

[
  {
    "compound": "[2H]C([2H])([2H])C1=C[C@H](c2c(O)cc(CCC)cc2O)C(C(=C)C)CC1 (stereo in doubt) [Example 3]",
    "Cmax, ng/mL": 795
  }
]

* * *

# test-method-notes: in vivo
# condition-description: SD, rat, po, 50 mg/kg

[
  {
    "compound": "[2H]C([2H])([2H])C1=C[C@H](c2c(O)cc(CCC)cc2O)C(C(=C)C)CC1 (stereo in doubt)",
    "Tmax, h": 2.1
  }
]

* * *

# test-method-notes: in vivo
# condition-description: SD, rat, po, 50 mg/kg

[
  {
    "molecule": "[2H]C([2H])([2H])C1=C[C@H](c2c(O)cc(CCC)cc2O)C(C(=C)C)CC1 (stereo in doubt) [Example 3]",
    "AUC(0-t) [ng·h/mL]": 4230
  }
]

* * *

# test-method-notes: Pharmacokinetics in rats after intragastric administration
# condition-description: SD, rat, plasma, po, 50 mg/kg
Each item that follows carries a reported AUC(0-inf).

[
  {
    "compound": "[2H]C([2H])=C([C@@H]1CCC(C([2H])([2H])[2H])=C[C@H]1c1c(O)cc(CCCCC)cc1O)C([2H])([2H])[2H] [Example 7]",
    "measure-unit": "ng·h/mL",
    "AUC(0-inf)": 6290
  },
  {
    "compound": "[2H]C([2H])([2H])C1=C[C@@H](c2c(O)cc(CCCCCCC)cc2O)[C@H](C(=C)C)CC1 [Example 9]",
    "measure-unit": "ng·h/mL",
    "AUC(0-inf)": 6480
  },
  {
    "compound": "[2H]C([2H])([2H])C1=C[C@H](c2c(O)cc(CCCCC)c(C(=O)O)c2O)[C@@H](C(=C)C)CC1 [Example 23]",
    "measure-unit": "ng·h/mL",
    "AUC(0-inf)": 8230
  },
  {
    "compound": "[2H]C([2H])([2H])C1=C[C@@H](c2c(O)cc(CCCCC)cc2O)[C@H](C(=C)C)CC1([2H])[2H] [Example 13]",
    "measure-unit": "ng·h/mL",
    "AUC(0-inf)": 6180
  },
  {
    "compound": "C=C(C)[C@@H]1CCC(C)=C[C@H]1c1c(O)cc(CCCCC)cc1O [CBD, cannabidiol]",
    "measure-unit": "ng·h/mL",
    "AUC(0-inf)": 4500
  },
  {
    "compound": "[2H]C([2H])(O)C1=C[C@@H](c2c(O)cc(CCCCC)cc2O)[C@H](C(=C)C)CC1([2H])[2H] [Example 16]",
    "measure-unit": "ng·h/mL",
    "AUC(0-inf)": 5630
  }
]

* * *

# test-method-notes: in vivo
# condition-description: SD, rat, po, 50 mg/kg

[
  {
    "compound": "[2H]C([2H])([2H])C1=C[C@H](c2c(O)cc(CCC)cc2O)C(C(=C)C)CC1 (stereo in doubt)",
    "AUC(0-inf) (ng·h/mL)": 4480
  }
]

* * *

# test-method-notes: Pharmacokinetics in rats after intragastric administration
# condition-description: SD, rat, plasma, po, 50 mg/kg
Each item that follows carries a reported half-life.
endpoint: half-life (h)

[
  {
    "molecule": "[2H]C([2H])([2H])C1=C[C@@H](c2c(O)cc(CCCCC)cc2O)[C@H](C(=C)C)CC1([2H])[2H] [Example 13]",
    "endpoint": "half-life",
    "measure-unit": "h",
    "endpoint-value": 6
  },
  {
    "molecule": "[2H]C([2H])=C([C@@H]1CCC(C([2H])([2H])[2H])=C[C@H]1c1c(O)cc(CCCCC)cc1O)C([2H])([2H])[2H] [Example 7]",
    "endpoint": "half-life",
    "measure-unit": "h",
    "endpoint-value": 6.5
  },
  {
    "molecule": "[2H]C([2H])([2H])C1=C[C@@H](c2c(O)cc(CCCCCCC)cc2O)[C@H](C(=C)C)CC1 [Example 9]",
    "endpoint": "half-life",
    "measure-unit": "h",
    "endpoint-value": 7.9
  },
  {
    "molecule": "C=C(C)[C@@H]1CCC(C)=C[C@H]1c1c(O)cc(CCCCC)cc1O [CBD, cannabidiol]",
    "endpoint": "half-life",
    "measure-unit": "h",
    "endpoint-value": 4.8
  },
  {
    "molecule": "[2H]C([2H])(O)C1=C[C@@H](c2c(O)cc(CCCCC)cc2O)[C@H](C(=C)C)CC1([2H])[2H] [Example 16]",
    "endpoint": "half-life",
    "measure-unit": "h",
    "endpoint-value": 5.8
  },
  {
    "molecule": "[2H]C([2H])([2H])C1=C[C@H](c2c(O)cc(CCCCC)c(C(=O)O)c2O)[C@@H](C(=C)C)CC1 [Example 23]",
    "endpoint": "half-life",
    "measure-unit": "h",
    "endpoint-value": 6.5
  }
]

* * *

# test-method-notes: Pharmacokinetics in rats after intragastric administration
# condition-description: SD, rat, plasma, po, 50 mg/kg
endpoint: AUC(0-t) (ng·h/mL)

[
  {
    "compound": "C=C(C)[C@@H]1CCC(C)=C[C@H]1c1c(O)cc(CCCCC)cc1O [CBD, cannabidiol]",
    "endpoint": "AUC(0-t)",
    "measure-unit": "ng·h/mL",
    "endpoint-value": 4460
  },
  {
    "compound": "[2H]C([2H])([2H])C1=C[C@@H](c2c(O)cc(CCCCC)cc2O)[C@H](C(=C)C)CC1([2H])[2H] [Example 13]",
    "endpoint": "AUC(0-t)",
    "measure-unit": "ng·h/mL",
    "endpoint-value": 5980
  },
  {
    "compound": "[2H]C([2H])([2H])C1=C[C@H](c2c(O)cc(CCCCC)c(C(=O)O)c2O)[C@@H](C(=C)C)CC1 [Example 23]",
    "endpoint": "AUC(0-t)",
    "measure-unit": "ng·h/mL",
    "endpoint-value": 6980
  },
  {
    "compound": "[2H]C([2H])([2H])C1=C[C@@H](c2c(O)cc(CCCCCCC)cc2O)[C@H](C(=C)C)CC1 [Example 9]",
    "endpoint": "AUC(0-t)",
    "measure-unit": "ng·h/mL",
    "endpoint-value": 6220
  },
  {
    "compound": "[2H]C([2H])=C([C@@H]1CCC(C([2H])([2H])[2H])=C[C@H]1c1c(O)cc(CCCCC)cc1O)C([2H])([2H])[2H] [Example 7]",
    "endpoint": "AUC(0-t)",
    "measure-unit": "ng·h/mL",
    "endpoint-value": 5830
  },
  {
    "compound": "[2H]C([2H])(O)C1=C[C@@H](c2c(O)cc(CCCCC)cc2O)[C@H](C(=C)C)CC1([2H])[2H] [Example 16]",
    "endpoint": "AUC(0-t)",
    "measure-unit": "ng·h/mL",
    "endpoint-value": 5490
  }
]
